Where these numbers come from: patent US11559575B2

- Tested on: HLA alleles of class I
- ASSAY DETAILS: Affinity of epitopes for HLA alleles of class I
- Type: binding, human
- SETUP CONDITIONS: H2B-1 epitopes, Table 1

RESIDUE STRING	SUBJECT OF TEST	Affinity for the HLA alleles of class I
MMERICTEAA (Leishmania major) [SEQ ID NO: 7]	HLA alleles of class I	HLA-A*02:03
SMSHRTMKS (Leishmania major) [SEQ ID NO: 18]	HLA alleles of class I	HLA-A*02:03
TMKSMSHRT (Leishmania major) [SEQ ID NO: 20]	HLA alleles of class I	HLA-A*02:03

---

- System: HLA alleles of class II
- ASSAY DETAILS: Affinity of epitopes for HLA alleles of class II
- Type: binding, human
- SETUP CONDITIONS: H2B-II core epitopes, Table 1
METRIC: Affinity HLA alleles of class II

RESIDUE STRING	SUBJECT OF TEST	ENDPOINT RESULT
NAQMSMSHR (Leishmania major) [SEQ ID NO: 46]	HLA alleles of class II	HLA-DRB1*01:01
GRSLKAINA (Leishmania major) [SEQ ID NO: 43]	HLA alleles of class II	HLA-DRB1*01:01
